All figures here come from patent US7074789B2.

# target: Lck (Homo sapiens)
# Construct: Kinases are expressed as either kinase domains or full length constructs; made in house
# Sequence (P06239 whole entry, species assumed, the tested form may be a part): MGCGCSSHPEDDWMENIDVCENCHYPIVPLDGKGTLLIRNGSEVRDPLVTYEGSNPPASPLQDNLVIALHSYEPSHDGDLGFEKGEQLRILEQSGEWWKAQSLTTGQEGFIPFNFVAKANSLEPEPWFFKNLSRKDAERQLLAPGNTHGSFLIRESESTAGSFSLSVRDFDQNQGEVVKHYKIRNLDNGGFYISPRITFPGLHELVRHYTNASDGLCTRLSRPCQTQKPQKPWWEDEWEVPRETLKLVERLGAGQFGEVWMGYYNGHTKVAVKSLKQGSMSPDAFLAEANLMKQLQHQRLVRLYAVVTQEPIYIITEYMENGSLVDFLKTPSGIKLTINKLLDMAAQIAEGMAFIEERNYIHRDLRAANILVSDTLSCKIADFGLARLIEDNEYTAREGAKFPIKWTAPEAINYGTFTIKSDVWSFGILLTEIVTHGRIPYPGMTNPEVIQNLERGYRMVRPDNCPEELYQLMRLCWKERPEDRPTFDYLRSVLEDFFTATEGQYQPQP
# experimentSummary: Kinase inhibition assay (33P transfer), Lck
# Format: biochemical
# measurementParameters: Table 3, class symbols; read-out: Lck-1
measurementName: IC50

Quick note, IC50 for `COc1cc(Nc2ncnc(-c3cccnc3Nc3ccc4c(c3)CCC4)n2)cc(OC)c1OC` landed at > 9.56 µM

Query `COc1ccc(Nc2ncnc(N(C)c3ccccc3Cl)n2)cc1OC` yields IC50 of 1.08 to 6.45 µM

Next:
IC50 measured on `Cc1ccc2c(c1)CCCN2c1ncnc(Nc2ccc(F)c(F)c2)n1` = > 12.7 µM

Reported IC50 ( `c1ccc(CNc2ncnc(Nc3cc(-c4ccco4)n[nH]3)n2)nc1` ) = > 13.5 µM

The molecule identified as `COc1cc(Nc2ncnc(Nc3cc(-c4ccc(C(=O)N(C)C)cc4)n[nH]3)n2)cc(OC)c1OC` registered its IC50 at < 0.815 µM

Form: molecule = `COC(=O)c1ccc(-c2cc(Nc3ncnc(NCc4cccnc4)n3)[nH]n2)cc1` ; IC50 = > 11.2 µM

Value of IC50 reported for the molecule `CN(c1cccc(Cl)c1)c1ncnc(Nc2cc(Cl)c(Cl)c(Cl)c2)n1` is > 10.8 µM
